# System: RXF 631
# assay.summary: NCI tumour cell line growth inhibition, 48 h
Active and inactive are the calls of the source. No stated cut-off is given here; in the data, active = GI50 up to about 1.1 µM and inactive = higher.
Use one of these outcomes when replying: 1 (yes) = active, 0 (no) = inactive

Some entries whose results are on file:
compound	class
COc1ccccc1-n1c(NN)nc2ccc(Br)cc2c1=O	0 (no)
CCOCC(=O)N[C@H]1CCc2cc(OC)c(OC)c(OC)c2-c2ccc(SC)c(=O)cc21	1 (yes)
COc1ccc2ccccc2c1C1OC(=O)c2ccccc21 (stereo not given)	0 (no)
COC(=O)C12OCC34C(CC5C(C)C6=CC(=O)OC6=CC5(C)C3C(O)C1O)OC(=O)C(OC(C)=O)C24 (stereo not given)	0 (no)

**Q:** I'd appreciate the recorded outcome for CCOC(=O)C1Cc2c(ccc(OC)c2OC)C(=O)C1N (stereo not given) from this test.
**A:** 0 (no)
